Hey, just so you know, these numbers are from paper PMC12670160.

- System: M. mycetomatis strain mm55
- measurement_conditions: primary screen, metabolic activity vs growth control; 96 h, 2 µM; inhibitor
Screen size: about 5,300 compounds; about 130 (2.5%) showed an effect of 50% or more. The full list was thinned out, with strong results kept by preference.
# % viability annotations
Respond numerically; units are % and should not be typed.

See these solved cases before continuing.
[
  {
    "molecule": "CC(C)(C)[C@@]1(O)CCN2C[C@@H]3c4ccccc4CCc4cccc(c43)[C@H]2C1 [ONC0002006, butaclamolhcl]",
    "test_value": 90.12
  },
  {
    "molecule": "CC(C)(C)c1cc(C=C(C#N)C#N)cc(Br)c1O [ONC0004740, ag1024]",
    "test_value": 105.8
  },
  {
    "molecule": "Cc1ccc2c(c1)c1c(n2CCc2ccc(C)nc2)CCN(C)C1.Cl.Cl [ONC0000365, latrepirdine dimebon dihydrochloride]",
    "test_value": 70.26
  },
  {
    "molecule": "CC(C)c1cc(CNc2nc(Nc3cc(C4CC4)[nH]n3)cc(N3CCN(C)CC3)n2)on1 [ONC0000976, xl228]",
    "test_value": 85.75
  },
  {
    "molecule": "CN1CCN(C(=O)c2nc3cc(Cl)ccc3[nH]2)CC1 [ONC0003559, jnj10191584]",
    "test_value": 96.39
  }
]

**Q:** I would be grateful if you could share the reported % viability for CC(C)(C)c1cc(C=C(C#N)C#N)cc(C(C)(C)C)c1O [ONC0004560, tyrphostin 9 sf 6847] .
**A:** 1.693

**Q:** Entry [H]/N=C(/N)c1ccc(NCc2nc3cc(C(=O)N(CCC(=O)O)c4ccccn4)ccc3n2C)cc1 [ONC0004940, bibr 953 dabigatran etexilate pradaxa] has what % viability?
**A:** 81.22

**Q:** Find the recorded % viability belonging to O=C(CCCN1CCC2(CC1)C(=O)NCN2c1ccccc1)c1ccc(F)cc1 [ONC0000014, spiperone] and report it.
**A:** 87.63

----------
Below, each entry is listed with its recorded % viability.
- Test system: M. mycetomatis strain mm55
- measurement_conditions: primary screen, metabolic activity vs growth control; 96 h, 2 µM; inhibitor
The whole screen tested about 5,300 compounds, of which about 130 (2.5%) showed an effect of 50% or more. For the sample, strong results were picked, then their nearest neighbours and some compounds at random.
Number only, in %; omit the unit.

**Q:** I would be grateful if you could share the reported % viability for COC(=O)CC1CC(c2ccc(O)cc2)=NO1 (stereo not shown) .
**A:** 78.97

----------
- Tested on: M. mycetomatis strain mm55
- measurement_conditions: primary screen, metabolic activity vs growth control; 96 h, 2 µM; inhibitor
Where a name gives a salt, the structure may show the parent alone. The whole screen tested about 5,300 compounds, of which about 130 (2.5%) showed an effect of 50% or more. What follows is part of a selection rich in strong results, with near analogues and random picks from the rest.
Note to self: use 1 (yes) only for % viability readings below 90%; a reading exactly at 90% still gets 0 (no).

[
  {
    "molecule": "[2H]C([2H])([2H])C(=O)Nc1c(I)c(C(=O)O)c(I)c(C(=O)NC)c1I",
    "assigned_class": "1 (yes)"
  }
]

**Q:** For O=c1ccc2c(OCCCCOc3ccccc3)c3ccoc3cc2o1 , is the recorded % viability below the cut-off of 90%?
**A:** 1 (yes)

**Q:** hey, is % viability for CN1CCN(C(=O)C2C(C(=O)O)[C@@H]3CC[C@H]2O3)CC1 (stereo partly drawn) lower than 90% or not?
**A:** 0 (no)

**Q:** Say whether its % viability is strictly beneath 90%. Entry: CC(C)N[C@@H]1CCn2c(=O)[nH]c3cccc(c32)[C@H]1O [ONC0001941, zilpaterolhcl]
**A:** 1 (yes)

**Q:** Confirm or reject: % viability of CC(=O)[C@]1(O)Cc2c(O)c3c(c(O)c2[C@@H](O[C@H]2C[C@H](N)[C@H](O)[C@H](C)O2)C1)C(=O)c1ccccc1C3=O [ONC0004533, idarubicin hcl] lies strictly below 90%
**A:** 1 (yes)
